All figures here come from ChEMBL document CHEMBL1909046.

This listing pairs compounds with measured log10(Ki).
# target.of.assay: 5-hydroxytryptamine receptor 2B (Homo sapiens); also: in other assays of this panel Not Active means under 50% inhibition at 10 µM
# Sequence (P41595 whole entry): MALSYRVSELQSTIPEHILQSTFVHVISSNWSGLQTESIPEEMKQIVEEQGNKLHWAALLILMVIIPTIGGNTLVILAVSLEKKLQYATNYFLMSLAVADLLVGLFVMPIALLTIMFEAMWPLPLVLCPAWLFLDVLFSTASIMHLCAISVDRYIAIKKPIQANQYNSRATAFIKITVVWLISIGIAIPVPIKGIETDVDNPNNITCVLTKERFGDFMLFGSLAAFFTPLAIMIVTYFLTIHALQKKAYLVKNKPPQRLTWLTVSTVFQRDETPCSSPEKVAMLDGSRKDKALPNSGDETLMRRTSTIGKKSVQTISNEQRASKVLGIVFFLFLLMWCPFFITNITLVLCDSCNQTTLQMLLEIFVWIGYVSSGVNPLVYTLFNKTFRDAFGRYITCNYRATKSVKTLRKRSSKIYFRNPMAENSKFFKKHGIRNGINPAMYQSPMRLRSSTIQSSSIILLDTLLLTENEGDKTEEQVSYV
# Assay type: cell membranes, CHO-K1, Membrane
# condition.context: read-out: Ki
Response schema: value (number) is log10 of Ki in units of nM.

Solved entries (count: 4):
compound	log10(Ki)
C[C@]12CC[C@@H]3c4ccc(OC(=O)c5ccccc5)cc4CC[C@H]3[C@@H]1CC[C@@H]2O [ESTRADIOL BENZOATE]	3.87
Cc1nccn1CC1CCc2c(c3ccccc3n2C)C1=O (stereo not given)	2.66
Cc1ccccc1C(=O)N1CCC(Cc2ccccc2)CC1	3.07
S=C=Nc1cccc2ccccc12 [1-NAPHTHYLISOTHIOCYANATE]	4.20

Next up:
Task item: Check the records and state log10(Ki) for O=C1CC2(CCCC2)CC(=O)N1CCCCN1CCN(c2ncccn2)CC1
Reply: 2.68

====

# target.of.assay: 5-hydroxytryptamine receptor 2B (Homo sapiens); also: in other assays of this panel Not Active means under 50% inhibition at 10 µM
# Assay type: cell membranes, CHO-K1, Membrane
# condition.context: cho-k1
measure.name: IC50

compound	IC50
CC(=O)Nc1ccc(O)cc1	Not Active
COP(=O)(OC)OC=C(Cl)Cl	Not Active
CC(C)c1nc(CN(C)C(=O)N[C@H](C(=O)N[C@@H](Cc2ccccc2)C[C@H](O)[C@H](Cc2ccccc2)NC(=O)OCc2cncs2)C(C)C)cs1	Not Active
CN1C(=O)COc2c(C(=O)NC3CN4CCC3CC4)cc(Cl)cc21 (stereo not drawn)	Not Active
CC[C@]1(O)C[C@@H]2CN(CCc3c([nH]c4ccccc34)[C@@](C(=O)OC)(c3cc4c(cc3OC)N(C)[C@H]3[C@@](O)(C(=O)OC)[C@H](OC(C)=O)[C@]5(CC)C=CCN6CC[C@]43[C@@H]65)C2)C1	Not Active
C[C@]1(Cn2ccnn2)[C@H](C(=O)O)N2C(=O)C[C@H]2S1(=O)=O	Not Active
COc1ccc2[nH]c([S+]([O-])Cc3ncc(C)c(OC)c3C)nc2c1 (stereo not drawn)	Not Active
NC(=O)c1cnccn1 [PYRAZINAMIDE]	Not Active
CCOC(=O)C1=C(C)NC(C)=C(C(=O)OC)C1c1cccc([N+](=O)[O-])c1 (stereo not drawn)	Not Active
Nc1c(CC(=O)O)cccc1C(=O)c1ccc(Br)cc1	Not Active

Task item: Give the value of IC50 reported for the following: CC(C)C[C@H](NC(=O)[C@@H](O)[C@H](N)Cc1ccccc1)C(=O)O
Reply: Not Active

Task item: Tell us which IC50 value is on record for Oc1ccc(OCc2ccccc2)cc1
Reply: Not Active

Task item: # return recorded IC50 for entry CCc1c2c(nc3ccc(OC(=O)N4CCC(N5CCCCC5)CC4)cc13)-c1cc3c(c(=O)n1C2)COC(=O)[C@]3(O)CC
Reply: Not Active

Task item: Fill in IC50 for record CC1(C)O[C@@H]2C[C@H]3[C@@H]4C[C@H](F)C5=CC(=O)CC[C@]5(C)[C@H]4[C@@H](O)C[C@]3(C)[C@]2(C(=O)CO)O1 [FLURANDRENOLIDE]
Reply: Not Active

Task item: Read off the recorded IC50 for Cc1cc(C)nc(NS(=O)(=O)c2ccc(N)cc2)n1
Reply: Not Active

Task item: Give IC50 for CC1=C(CC(=O)O)c2cc(F)ccc2/C1=C\c1ccc([S+](C)[O-])cc1 (stereo not drawn)
Reply: Not Active

Task item: Dear colleague, please send me the reported IC50 for C[N+](C)(C)CCO.[Cl-] [CHOLINE CHLORIDE] when you can.
Reply: Not Active

Task item: Identify IC50 associated with the compound CCN(CC)CCOC(=O)c1ccc(N)cc1
Reply: Not Active

====

# target.of.assay: 5-hydroxytryptamine receptor 6 (Homo sapiens); also: in other assays of this panel Not Active means under 50% inhibition at 10 µM
# Sequence (P50406 whole entry): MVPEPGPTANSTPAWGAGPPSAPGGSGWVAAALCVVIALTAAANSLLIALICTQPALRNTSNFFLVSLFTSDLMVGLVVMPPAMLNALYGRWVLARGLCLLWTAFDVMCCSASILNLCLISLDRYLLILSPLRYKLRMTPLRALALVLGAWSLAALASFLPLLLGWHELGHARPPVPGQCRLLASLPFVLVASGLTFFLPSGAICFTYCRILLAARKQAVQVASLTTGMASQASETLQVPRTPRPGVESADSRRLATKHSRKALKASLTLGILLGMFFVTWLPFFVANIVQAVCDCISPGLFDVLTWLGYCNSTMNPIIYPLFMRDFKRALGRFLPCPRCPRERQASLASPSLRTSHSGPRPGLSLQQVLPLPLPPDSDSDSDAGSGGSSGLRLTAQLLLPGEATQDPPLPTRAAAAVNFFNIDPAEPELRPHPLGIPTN
# Assay type: cell membranes, HeLa, Membrane
# condition.context: read-out: IC50
Listing: pIC50 of selected compounds
In textbook form, pIC50 equals minus log to base ten of the concentration in mol/L.

Example compounds with recorded pIC50:
compound	pIC50
COc1cc(NS(=O)(=O)c2ccc(N)cc2)nc(OC)n1	5.87
CC/C(=C(/CC)c1ccc(O)cc1)c1ccc(O)cc1	4.89
CC(C)NCC(O)COc1cccc2ccccc12 (centres undefined)	5.51

// next entry
Task item: Supply pIC50 measured with 5-hydroxytryptamine receptor 6 (Homo sapiens) for CN1CCC(=C2c3ccccc3C=Cc3ccccc32)CC1 .
Reply: 6.55

====

# test.summary: DRUGMATRIX: Calcium Channel Type L, Dihydropyridine radioligand binding (ligand: [3H] Nitrendipine)
# Assay type: cell membranes, Rattus norvegicus, Wistar, Cerebral cortex, Membrane
# condition.context: Not Active = under 50% inhibition at 10 µM; read-out: IC50
Let's look at some compounds and their measured IC50.
Give just the numeric value; nM need not be written.

Past entries and their recorded results:
compound	IC50, nM
COC(=O)C1=C(C)NC(C)=C(C(=O)OCC(C)C)C1c1ccccc1[N+](=O)[O-] (stereo unspecified)	0.741
O=C(c1ccc(OCCN2CCCCC2)cc1)c1c(-c2ccc(O)cc2)sc2cc(O)ccc12	388
CC(C)(C)c1ccc(C(O)CCCN2CCC(C(O)(c3ccccc3)c3ccccc3)CC2)cc1 (stereo unspecified)	779
COCCOC(=O)C1=C(C)NC(C)=C(C(=O)OC(C)C)C1c1cccc([N+](=O)[O-])c1 (stereo unspecified)	0.242
CN(C)c1ccc(C(=C2C=CC(=[N+](C)C)C=C2)c2ccc(N(C)C)cc2)cc1.[Cl-]	2130

Below: the item to evaluate.
Task item: Give the reported value of IC50 for this record: CCOC(=O)C1=C(C)NC(C)=C(C(=O)OC)C1c1cccc([N+](=O)[O-])c1 (stereo unspecified)
Reply: 0.383

====

# target.of.assay: Cytochrome P450 2E1 (Homo sapiens); also: in other assays of this panel Not Active means under 50% inhibition at 10 µM
# Sequence (P05181 whole entry): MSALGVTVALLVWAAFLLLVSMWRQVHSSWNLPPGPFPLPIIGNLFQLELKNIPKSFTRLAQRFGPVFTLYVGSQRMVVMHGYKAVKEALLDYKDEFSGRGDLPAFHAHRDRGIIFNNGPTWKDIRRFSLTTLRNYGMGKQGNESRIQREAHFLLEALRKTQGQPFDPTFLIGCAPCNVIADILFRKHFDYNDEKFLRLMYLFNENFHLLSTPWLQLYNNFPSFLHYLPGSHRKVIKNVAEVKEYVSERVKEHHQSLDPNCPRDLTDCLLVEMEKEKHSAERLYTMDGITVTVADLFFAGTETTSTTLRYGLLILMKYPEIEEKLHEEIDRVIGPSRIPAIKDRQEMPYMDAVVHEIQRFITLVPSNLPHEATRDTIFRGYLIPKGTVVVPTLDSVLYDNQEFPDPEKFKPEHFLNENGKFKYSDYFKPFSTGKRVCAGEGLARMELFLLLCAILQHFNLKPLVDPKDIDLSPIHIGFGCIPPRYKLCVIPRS
# condition.context: bti-tn-5b1-4
measure.name: Ki

compound	value.measured
COc1ccc2c(c1)c(CC(=O)O)c(C)n2C(=O)c1ccc(Cl)cc1 [INDOMETHACIN]	Not Active
CO[C@H]1/C=C/O[C@@]2(C)Oc3c(C)c(O)c4c(c3C2=O)C2=NC3(CCN(CC(C)C)CC3)NC2=C(NC(=O)/C(C)=C\C=C\[C@H](C)[C@H](O)[C@@H](C)[C@@H](O)[C@@H](C)[C@H](OC(C)=O)[C@@H]1C)C4=O [RIFABUTIN]	Not Active
C[C@@]12C(=O)OC(=O)[C@]1(C)[C@H]1CC[C@@H]2O1 [CANTHARIDIN]	Not Active
CC/C(=C(/CC)c1ccc(O)cc1)c1ccc(O)cc1 [DIETHYLSTILBESTROL]	Not Active

====

# target.of.assay: Histamine H2 receptor (Homo sapiens); also: in other assays of this panel Not Active means under 50% inhibition at 10 µM
# Sequence (P25021 whole entry): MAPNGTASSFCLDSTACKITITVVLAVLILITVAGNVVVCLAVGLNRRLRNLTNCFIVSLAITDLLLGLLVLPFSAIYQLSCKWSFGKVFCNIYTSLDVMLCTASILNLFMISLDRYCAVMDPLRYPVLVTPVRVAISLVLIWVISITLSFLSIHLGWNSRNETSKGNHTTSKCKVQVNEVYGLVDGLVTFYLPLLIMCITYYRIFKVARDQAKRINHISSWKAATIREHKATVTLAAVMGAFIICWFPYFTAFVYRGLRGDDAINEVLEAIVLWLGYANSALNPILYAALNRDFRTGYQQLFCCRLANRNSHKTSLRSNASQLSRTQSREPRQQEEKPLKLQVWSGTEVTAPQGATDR
# Assay type: cell membranes, CHO-K1, Membrane
# condition.context: cho-k1
measure.name: IC50

molecule	value.measured
C[C@]12CC[C@@H]3c4ccc(O)cc4CC[C@H]3[C@@H]1CC[C@@H]2O [ESTRADIOL]	Not Active
CC(=O)Nc1c(I)c(NC(C)=O)c(I)c(C(=O)O)c1I [DIATRIZOIC ACID]	Not Active
Clc1ccc2c(c1)C(N1CCNCC1)=Nc1ccccc1O2 [AMOXAPINE]	Not Active
C[C@](O)(CS(=O)(=O)c1ccc(F)cc1)C(=O)Nc1ccc(C#N)c(C(F)(F)F)c1 [(R)-BICALUTAMIDE]	Not Active
COc1cc2c(c3oc(=O)c4c(c13)CCC4=O)[C@@H]1C=CO[C@@H]1O2 [AFLATOXIN]	Not Active

Task item: Please report the measured IC50 for CCOC(=O)C1=C(C)NC(C)=C(C(=O)OC)C1c1cccc([N+](=O)[O-])c1 (stereo unspecified) [NITRENDIPINE]
Reply: Not Active

Task item: Identify measured IC50 associated with CC(=O)OCC(=O)[C@@]1(O)CC[C@H]2[C@@H]3CCC4=CC(=O)CC[C@]4(C)[C@H]3C(=O)C[C@@]21C [CORTISONE ACETATE]
Reply: Not Active

Task item: For CC1(C)O[C@@H]2C[C@H]3[C@@H]4C[C@H](F)C5=CC(=O)CC[C@]5(C)[C@H]4[C@@H](O)C[C@]3(C)[C@]2(C(=O)CO)O1 [FLURANDRENOLIDE] , write its IC50.
Reply: Not Active

Task item: State, in one line, measured IC50 of CCc1c2c(nc3ccc(OC(=O)N4CCC(N5CCCCC5)CC4)cc13)-c1cc3c(c(=O)n1C2)COC(=O)[C@]3(O)CC [IRINOTECAN]
Reply: Not Active

Task item: Item Cc1cc2cc3c(C)cc(=O)oc3c(C)c2o1 [TRIOXSALEN] : provide IC50
Reply: Not Active

Task item: Give a short answer stating reported IC50 for COc1ccc2c(c1)c(CC(=O)O)c(C)n2C(=O)c1ccc(Cl)cc1 [INDOMETHACIN] .
Reply: Not Active

Task item: Tell me IC50 reported for C#C[C@]1(OC(C)=O)CC[C@H]2[C@@H]3CCC4=CC(=O)CC[C@@H]4[C@H]3CC[C@@]21C [NORETHINDRONE ACETATE]
Reply: Not Active

Task item: Annotate the molecule COc1cc2c(c(OC)c1OC)-c1ccc(OC)c(=O)cc1[C@@H](NC(C)=O)CC2 [COLCHICINE] with its measured IC50.
Reply: Not Active

Task item: Identify measured IC50 associated with CCCN(CCC)C(=O)C(CCC(=O)O)NC(=O)c1ccccc1 (stereo unspecified) [PROGLUMIDE]
Reply: Not Active

Task item: Assign IC50 to the following record: CCN(CC)CCOC(=O)c1ccc(N)cc1 [PROCAINE]
Reply: Not Active

Task item: Look up and report measured IC50 for this entry: CCCC(CCC)C(=O)O [VALPROIC ACID]
Reply: Not Active
